molecules and their reported pIC50
Biological target: OX1 (Homo sapiens, UniProt O43613)
Sequence (O43613 1-425): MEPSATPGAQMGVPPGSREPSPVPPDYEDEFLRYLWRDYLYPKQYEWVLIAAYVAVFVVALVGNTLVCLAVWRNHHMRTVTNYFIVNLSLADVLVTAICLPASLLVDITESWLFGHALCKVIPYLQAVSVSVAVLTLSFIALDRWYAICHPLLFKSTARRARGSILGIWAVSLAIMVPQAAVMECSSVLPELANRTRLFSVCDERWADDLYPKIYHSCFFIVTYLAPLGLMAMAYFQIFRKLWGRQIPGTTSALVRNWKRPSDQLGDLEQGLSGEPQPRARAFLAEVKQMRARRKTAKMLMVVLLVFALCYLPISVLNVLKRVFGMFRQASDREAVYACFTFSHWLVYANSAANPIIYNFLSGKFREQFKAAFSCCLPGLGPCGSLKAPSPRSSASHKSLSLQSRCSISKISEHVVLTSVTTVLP
Assay: Orexin receptor cell-based functional assay (FLIPR [Ca2+]i), OX1
Details: CHO-OX1 cells, FLIPR calcium, EC90 of OXA
Note on pIC50: it is the negative log10 of concentration, concentration in mol/L.

Cc1ccc(-n2nccn2)c(C(=O)N2CCC(F)(F)[C@H]2CNc2ncc(Cl)cn2)c1	8.22
Cc1c(F)ccc(C(=O)N2CCC(F)(F)[C@H]2CNc2ncc(Cl)cn2)c1-n1nccn1	7.68
Cc1ccc(-n2nccn2)c(C(=O)N2CCC(F)(F)[C@H]2CNc2ncc(C(F)(F)F)cn2)c1	8.40
O=C(c1cc(F)ccc1-c1ncccn1)N1CCC(F)(F)[C@H]1CNc1ncc(C(F)(F)F)cn1	8.70
O=C(c1cc(F)ccc1-n1nccn1)N1CCC(F)(F)[C@H]1CNc1ncc(Cl)cn1	7.66
O=C(c1ccc(F)c(F)c1-n1nccn1)N1CCC(F)(F)[C@H]1CNc1ncc(Cl)cn1	6.00
O=C(c1cc(F)ccc1-n1nccn1)N1CCC(F)(F)[C@H]1CNc1ncc(C(F)(F)F)cn1	8.40

Moving on to another molecule below.
Provide only the value of recorded pIC50 for `Cc1c(F)ccc(C(=O)N2CCC(F)(F)[C@H]2CNc2ncc(C(F)(F)F)cn2)c1-n1nccn1` 7.82

----------
target: OX1 (Homo sapiens); test: Orexin receptor cell-based functional assay (FLIPR [Ca2+]i), OX1; conditions: CHO-OX1 cells, FLIPR calcium, EC90 of OXA
compounds and their reported IC50
Answer with a number only, understood to be in nM.

Guide cases for IC50, answers given:
Cc1ccc(C(=O)N2CCC(F)(F)[C@H]2CNc2ncc(C(F)(F)F)cn2)c(-n2nccn2)c1F [Example 8]	11
Cc1cc(C)c(-n2nccn2)c(C(=O)N2CCC(F)(F)[C@H]2CNc2ncc(C(F)(F)F)cn2)c1 [Example 60]	16

Moving on to another compound below.
Provide only the value of recorded IC50 for O=C(c1ccc(F)cc1-n1nccn1)N1CCC(F)(F)[C@H]1CNc1ncc(C(F)(F)F)cn1 [Example 53] 15

Every entry's value here was drawn from patent US10221170B2.
